target: transferrin (TF) (Homo sapiens) (UniProt P02787); conditions: Nap-dU at n (6) positions [Nap-dU at 2,6,8,9,11,16,17,22,24,27,35]; ELISA, SB18, 37 C
Sequence (P02787 20-698): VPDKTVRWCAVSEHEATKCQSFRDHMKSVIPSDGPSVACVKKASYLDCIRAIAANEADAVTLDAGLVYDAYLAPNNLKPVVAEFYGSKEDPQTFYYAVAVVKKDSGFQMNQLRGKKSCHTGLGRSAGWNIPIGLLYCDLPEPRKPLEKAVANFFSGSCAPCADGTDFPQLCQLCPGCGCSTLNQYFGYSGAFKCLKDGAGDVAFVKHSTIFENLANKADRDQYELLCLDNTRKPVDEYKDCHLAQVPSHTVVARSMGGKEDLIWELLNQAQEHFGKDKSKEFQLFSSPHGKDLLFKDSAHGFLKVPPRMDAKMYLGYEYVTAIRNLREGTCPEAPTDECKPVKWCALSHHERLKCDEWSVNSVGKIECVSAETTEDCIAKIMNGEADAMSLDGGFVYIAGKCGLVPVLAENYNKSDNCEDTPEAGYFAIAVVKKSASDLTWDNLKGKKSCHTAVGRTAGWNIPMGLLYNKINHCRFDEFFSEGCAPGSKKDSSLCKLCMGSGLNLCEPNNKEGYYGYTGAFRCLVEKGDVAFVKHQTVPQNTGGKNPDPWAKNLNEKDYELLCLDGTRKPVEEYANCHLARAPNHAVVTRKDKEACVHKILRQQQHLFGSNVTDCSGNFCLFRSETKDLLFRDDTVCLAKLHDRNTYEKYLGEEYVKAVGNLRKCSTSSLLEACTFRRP
experimental.readout: Kd (nM)

> print(dat)
                            sequence.record  experimental.readout  measured.result
1  ATGCCTCTTCTGCAGTTACGGTGTGATCGCCCAATAGCAGCCAC [TD012]                    Kd             14.9

---

test system: KRAS G12D G12D, P01116-2; conditions: Nap-dU at n (6) positions [5,11,13,19,21,23,28,36,38]; ELISA, SB18, 37 C
pKd: −log10 of the molar value.
experimental.readout: pKd

> print(dat)
                            sequence.record  experimental.readout  measured.result
1  CAGGTCGAGCTGTACGCGTGTGTGACCTGAAGACGTATA [AD044]                   pKd             5.80
